tested on: alkaline phosphatase, intestinal [Bos taurus]; assay: IAP enzyme activity enhancers – biochemical, bovine IAP, CDP-star luminescence, primary screen (AID 1016); details: purified bovine IAP, 30 min, at 20 µM, hits give high values, fold of DMSO-control signal, blank-subtracted
Among all 200,000 compounds or so, about 330 (0.17%) were called active. Only a selection was taken, and actives are over-represented in it overall.
Label rule, in plain words: activation factor of 1 and up is TRUE, under 1 is FALSE.

input-smiles	class
COc1cccc(NC(=S)C(C#N)=C2N(C)c3ccccc3N2C)c1	TRUE
Cc1ccc(Oc2cc(NC(=O)CCCn3nc(C)c([N+](=O)[O-])c3C)cc([N+](=O)[O-])c2)cc1	FALSE
Cc1ccc(Cl)c(NC(=O)CN(C)CC(=O)Nc2ccc(F)c(F)c2F)c1Cl	TRUE
COc1ccc(-c2nc3cnccn3c2NC(C)(C)CC(C)(C)C)cc1O	TRUE
O=C(O)c1ccc2c3c(cccc13)C(=O)N(OS(=O)(=O)c1ccccc1)C2=O	TRUE

###

Readings of activation factor for the listed molecules
tested on: alkaline phosphatase, intestinal [Bos taurus]; experiment: IAP enzyme activity enhancers – biochemical, bovine IAP, CDP-star luminescence, primary screen (AID 1016); details: purified bovine IAP, 30 min, at 20 µM, hits give high values, fold of DMSO-control signal, blank-subtracted
The whole screen tested about 200,000 compounds, of which about 330 (0.17%) were called active. Many of the other results were omitted from the sample, so actives are more common in it than they were.

molecule	activation factor
CCc1cc(-c2n[nH]c(=S)n2CC(C)C)cs1	1
COCc1c(N)c(C)nc(Cl)c1C#N	1.1
CCN(CC)CCCSc1nc2ccccc2s1	1.1
COCCCNC(=O)Cn1cc(/C=C(\C#N)C(=O)N2CCN(c3ccccc3)CC2)c2ccccc21	1
COc1cccc(N(Cc2nnc3n2CCCCC3)C(=O)Nc2ccccc2F)c1	1.1
COc1ccc(CCNC(=O)CSc2nnc3ccc(-c4ccncc4)nn23)cc1	1.1
COc1ccc(CCNc2cc(C)nc3c(-c4ccc(Cl)cc4)c(C)nn23)cc1OC	0.9
COc1ccc(-n2c(C)cc(C(=O)CN3C(=O)NC4(CCc5ccccc54)C3=O)c2C)cc1 (configuration not stated)	1
CSc1ccc(C(=O)C2CCCN(C(=O)c3ccc(C)nc3)C2)cc1 (configuration not stated)	1
Cc1c(NC(=O)CCC2CCCCC2)cc(C(=O)N2CCOCC2)cc1[N+](=O)[O-]	0.9
CCOC(=O)c1nn(-c2ccccc2F)c2nc(Nc3ccccc3)cc(=O)n12	1
COc1ccc(/C=N/NC(=O)CNC(=O)c2ccc(S(=O)(=O)N3CCCC3)cc2)c(OC)c1	1.1
CN(c1ccccc1)S(=O)(=O)c1cccc(NC(=O)Cc2c(F)cccc2Cl)c1	0.9
COc1ccc(F)c(-c2nc(CN3CCC(c4ccccc4)CC3)c(C)o2)c1	1.1
CCOC(=O)c1c(NC(=O)Cn2nc(C(F)(F)F)cc2C)sc2c1CCC2	1
C/C(=C\c1ccco1)CN1CCC(N2CCC(C(=O)N3CCOCC3)CC2)CC1	1.1
Cc1c(Br)ccc(NC(=O)COc2ccccc2C(N)=O)c1C	0.9
O=C(Nc1nnc(C2COc3ccccc3O2)o1)c1ccc(F)cc1 (configuration not stated)	1
O=C(CN1CCOCC1)Nc1c(Cl)cc(Cl)cc1Cl	1
NC(=O)C1CCN(C(=O)COc2cccc3cccnc23)CC1	1
Cc1ccc([N+](=O)[O-])c(OCCCNCC(C)O)c1 (configuration not stated)	1
Cc1cccc(CSc2nnc(C)c(=O)n2N)c1	1.1
